- experiment notes: Dissociation constant (pKa)
- Assay type: physicochemical
I'd appreciate it if you could supply pKa values for the items below.

QUERY: Suppose we examine the compound CN1C=CNC1Br (stereo not given) ; what pKa value has been reported?
RESULT: 3.82

QUERY: Another compound to check: ClC1NC=CN1
RESULT: 3.55

QUERY: Repeat with CN1C=CNC1N (stereo not given)
RESULT: 8.54

QUERY: Input C1=CNC(c2ccncc2)N1
RESULT: 5.36

QUERY: Can you check O=[N+]([O-])C1NC=CN1 next?
RESULT: -0.81

QUERY: Would you mind doing C1=CNC(c2ccccc2)N1 as well?
RESULT: 6.48

QUERY: Next record, please: CN1C=CNC1F (stereo not given)
RESULT: 2.3

QUERY: Okay, and CCC1NC=CN1 ?
RESULT: 7.73

QUERY: Quick one: CN1C=CNC1
RESULT: 7.12

QUERY: Then this compound: C1=CNCN1
RESULT: 6.99

QUERY: // query: FC1NC=CN1
RESULT: 2.4

QUERY: Subsequent entry: CSC1NC=CN1
RESULT: 5.95

QUERY: // next record BrC1NC=CN1
RESULT: 3.79

QUERY: Can you handle CC1NC=CN1 next?
RESULT: 7.86

QUERY: Please do the same for NC1NC=CN1 as well.
RESULT: 8.46
